compounds and their reported EC50
- measured on: TYK2 (Homo sapiens)
- Construct: JAK1 (aa 850-1154) and TYK2 (aa 871-1187) are expressed with an N-terminally fused GST-tag; GST (N)
- Sequence (P29597 871-1187): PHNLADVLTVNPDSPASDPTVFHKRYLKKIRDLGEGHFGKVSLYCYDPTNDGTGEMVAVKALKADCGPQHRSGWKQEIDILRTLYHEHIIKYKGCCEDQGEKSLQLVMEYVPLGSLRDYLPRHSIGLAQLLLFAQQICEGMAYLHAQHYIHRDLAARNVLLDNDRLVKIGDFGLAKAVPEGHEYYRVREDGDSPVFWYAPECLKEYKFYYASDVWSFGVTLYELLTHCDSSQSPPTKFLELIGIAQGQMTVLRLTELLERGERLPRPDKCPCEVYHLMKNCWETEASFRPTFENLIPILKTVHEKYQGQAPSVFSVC
- assay explanation: TYK2 kinase assay (HTRF, inhibition of phosphorylation of a synthetic peptide)
- assay setup: catalytic domain aa 871-1187, GST-tag; 13 μM ATP (Km); read-out: TYK2 kinase inhibitory activity (EC50)

INSERT INTO measurements (structure_string, reported_measurement) VALUES
  ('COc1cc(OC)cc(C(=O)N2CCN(c3ncnc4[nH]ccc34)CC3(CC3)C2)c1', '> 1 µM'),
  ('N#CCOc1cccc(C(=O)N2CCN(c3ncnc4[nH]ccc34)CC3(CC3)C2)c1', '> 1 µM'),
  ('N#Cc1ccc(C(=O)N2CCCN(c3ncnc4[nH]ccc34)CC23CC3)s1', '0.1 to 1 µM');

Okay, next one:
stdin: Would you mind telling me what EC50 value was observed for N#Cc1cccc(CC(=O)N2CCN(c3ncnc4[nH]ccc34)CC3(CC3)C2)c1 ?
stdout: > 1 µM

---

molecules and their reported pEC50
- measured on: JAK3 (Homo sapiens, UniProt P52333)
- Construct: All four purified enzymes contain only the catalytic domain; His (N)
- Sequence (P52333 822-1111 limits assumed): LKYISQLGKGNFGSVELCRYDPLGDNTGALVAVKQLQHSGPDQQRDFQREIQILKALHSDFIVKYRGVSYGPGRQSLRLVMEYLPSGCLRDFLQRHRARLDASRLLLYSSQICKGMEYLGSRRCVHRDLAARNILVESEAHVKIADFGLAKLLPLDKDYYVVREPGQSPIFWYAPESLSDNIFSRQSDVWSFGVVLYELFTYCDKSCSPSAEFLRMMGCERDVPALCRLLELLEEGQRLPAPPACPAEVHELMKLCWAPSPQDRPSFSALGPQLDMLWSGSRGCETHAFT
- assay explanation: JAK3 kinase assay (HTRF, inhibition of phosphorylation of a synthetic peptide)
- assay setup: catalytic domain, His-tag; 2 μM ATP (Km); read-out: JAK3 kinase inhibitory activity (EC50)
pEC50: −log10 of the molar value.

INSERT INTO results (molecule, endpoint, reported_measurement) VALUES
  ('N#Cc1ccc(CC(=O)N2CCN(c3ncnc4[nH]ccc34)CC3(CC3)C2)cc1 [Example 10]', 'pEC50', '> 7.00'),
  ('O=C(c1nc[nH]n1)N1CCCN(c2ncnc3[nH]ccc23)CC12CC2 [Example 228]', 'pEC50', '< 6.00'),
  ('COc1ccc(CC(=O)N2CCN(c3ncnc4[nH]ccc34)CC3(CC3)C2)cc1 [Example 261]', 'pEC50', '6.00 to 7.00'),
  ('S=C(CC1CCCC1)N1CCCN(c2ncnc3[nH]ccc23)CC12CC2 [Example 95]', 'pEC50', '6.00 to 7.00'),
  ('CC(C)(C(=O)N1CCN(c2ncnc3[nH]ccc23)CC2(CC2)C1)c1ccc(Cl)cc1 [Example 269]', 'pEC50', '6.00 to 7.00'),
  ('O=C(Cc1ccccc1Cl)N1CCN(c2ncnc3[nH]ccc23)CC2(CC2)C1 [Example 173]', 'pEC50', '6.00 to 7.00');

stdin: Form: Entry = O=C(c1ccccc1F)N1CCCN(c2ncnc3[nH]ccc23)CC12CC2 [Example 112] | System = JAK3 (Homo sapiens, UniProt P52333) | pEC50 = ____
stdout: 6.00 to 7.00

stdin: Likewise for CN1CCN(CC(=O)N2CCCN(c3ncnc4[nH]ccc34)CC23CC3)C1=O [Example 83] ?
stdout: 6.00 to 7.00

stdin: Likewise for O=C(c1cc2c(s1)CCC2)N1CCN(c2ncnc3[nH]ccc23)CC2(CC2)C1 [Example 21] ?
stdout: 6.00 to 7.00

stdin: Likewise for c1ccc(CN2CCN(c3ncnc4[nH]ccc34)CC3(CC3)C2)cc1 [Example 107] ?
stdout: < 6.00

stdin: Likewise for NS(=O)(=O)c1cccc(C(=O)N2CCN(c3ncnc4[nH]ccc34)CC3(CC3)C2)c1 [Example 73] ?
stdout: 6.00 to 7.00
